pIC50 values for the compounds below.
TARGET DESC: ZAP-70 (Homo sapiens)
Construct: endogenous in cells
Sequence (P43403 whole entry): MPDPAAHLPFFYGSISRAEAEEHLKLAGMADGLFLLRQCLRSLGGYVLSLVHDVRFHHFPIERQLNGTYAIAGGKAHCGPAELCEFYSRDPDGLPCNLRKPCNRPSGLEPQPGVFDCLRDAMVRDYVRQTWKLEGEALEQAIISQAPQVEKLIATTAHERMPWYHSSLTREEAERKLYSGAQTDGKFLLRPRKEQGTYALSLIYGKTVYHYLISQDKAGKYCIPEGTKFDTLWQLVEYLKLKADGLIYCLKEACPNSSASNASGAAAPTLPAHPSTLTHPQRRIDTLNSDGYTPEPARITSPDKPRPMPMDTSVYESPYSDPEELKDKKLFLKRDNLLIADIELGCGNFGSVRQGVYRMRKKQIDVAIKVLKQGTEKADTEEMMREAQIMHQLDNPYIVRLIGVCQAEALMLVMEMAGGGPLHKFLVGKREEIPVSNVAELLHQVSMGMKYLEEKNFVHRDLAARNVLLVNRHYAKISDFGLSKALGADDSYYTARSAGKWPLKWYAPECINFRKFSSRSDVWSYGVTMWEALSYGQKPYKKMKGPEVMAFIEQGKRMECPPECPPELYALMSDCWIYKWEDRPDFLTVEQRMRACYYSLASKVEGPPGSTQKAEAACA
TEST NAME: ZAP-70 kinobeads assay
COND: competition with immobilized aminopyrido-pyrimidine ligand 24 in cell lysate; ZAP-70 detected by dot blot
pIC50: −log10 of the molar value.

These solved cases illustrate the format of a correct answer.
| STRUCTURE NOTATION | pIC50 |
| --- | --- |
| COc1cc(Nc2ncc(F)c(Nc3ccc(F)c(C)c3NS(C)(=O)=O)n2)cc(OC)c1OC | 6.00 to 7.00 |
| CS(=O)(=O)Nc1ccccc1Nc1nc(Nc2ccc(CC(=O)O)cc2)ncc1Cl | > 7.00 |
| CS(=O)(=O)Nc1ccccc1Nc1nc(Nc2cccc(-n3cccn3)c2)ncc1Cl | 6.00 to 7.00 |
| Cc1cc(C)n(-c2cccc(Nc3ncc(Cl)c(Nc4ccccc4NS(C)(=O)=O)n3)c2)n1 | 5.00 to 6.00 |
| Cc1cc(C)n(-c2ccc(Nc3ncc(Cl)c(Nc4ccccc4NS(C)(=O)=O)n3)cc2)n1 | 6.00 to 7.00 |

Lab note: measured pIC50 of COc1ccc(Nc2nc(Nc3cc(OC)c(OC)c(OC)c3)ncc2F)c(NS(C)(=O)=O)c1 was > 7.00

Lab note: measured pIC50 of CS(=O)(=O)Nc1ccccc1Nc1nc(Nc2cccc(N3CCCC3)c2)ncc1F was 5.00 to 6.00

Lab note: measured pIC50 of COc1cc(Nc2ncc(F)c(Nc3ccccc3NS(C)(=O)=O)n2)cc(OC)c1OCCN1CCCC1 was > 7.00
